Measured melting point values are reported for all entries that follow.

Example entries begin here.
{"compound.structure": "COc1ccc(CC(=O)Nc2ccc(S(N)(=O)=O)cc2Cl)c(F)c1Oc1cc(Cl)cc(C#N)c1", "melting point": "212 to 212.8 °C"}
{"compound.structure": "Cc1ccc(CC(=O)Nc2ccccc2Cl)cc1Oc1cc(Cl)ccc1Br", "melting point": "133.9 to 135.9 °C"}

Task item: Tell me melting point reported for Cc1cc(C#N)cc(C)c1Oc1cc(CC(=O)Nc2ccccc2Cl)ccc1Cl
Reply: 183.9 to 185.1 °C

* * *

Measured melting point values are reported for all entries that follow.

{"compound.structure": "N#Cc1cc(Cl)cc(Oc2c(Br)ccc(CC(=O)Nc3ccc(S(N)(=O)=O)cc3Cl)c2F)c1", "readout": "melting point", "result.value": "165 to 166.6 °C"}

Task item: Tell me melting point reported for Cc1cc(N2CCCCS2(=O)=O)ccc1NC(=O)Cc1ccc(C)c(Oc2cc(Cl)cc(C#N)c2)c1
Reply: 84.3 to 85.6 °C

Task item: Tell me melting point reported for CC(C)CCC(=O)NS(=O)(=O)c1ccc(NC(=O)Cc2ccc(Cl)c(Oc3cc(Cl)cc(C#N)c3)c2F)c(Cl)c1.[Na]
Reply: 195.6 to 197 °C

Task item: Tell me melting point reported for CC(F)(F)c1cc(C#N)cc(Oc2c(Cl)ccc(CC(=O)Nc3ccc(S(N)(=O)=O)cc3Cl)c2F)c1
Reply: 192 to 197.6 °C

Task item: Tell me melting point reported for CC(C)c1ccc(CC(=O)Nc2ccc(S(N)(=O)=O)cc2)cc1Oc1cc(Cl)ccc1Br
Reply: 204.1 to 206.7 °C

Task item: Tell me melting point reported for Cc1cc(S(N)(=O)=O)ccc1NC(=O)Cc1ccc(Cl)c(Oc2cc(Br)cc(C#N)c2)c1F
Reply: 246 to 250.6 °C

Task item: Tell me melting point reported for CN(C(=O)Cc1ccc(Cl)c(Oc2cc(Cl)cc(C#N)c2)c1F)c1ccccc1Cl
Reply: 134 to 137.1 °C

Task item: Tell me melting point reported for CCc1ccc(CC(=O)Nc2ccc(S(N)(=O)=O)cc2C)c(F)c1Oc1cc(C#N)cc(C(F)F)c1
Reply: 237.6 to 238.4 °C

Task item: Tell me melting point reported for COc1ccc(CC(=O)Nc2ccc(S(N)(=O)=O)cc2C)cc1Oc1cc(C#N)ccc1Cl
Reply: 232.9 to 236.9 °C

Task item: Tell me melting point reported for CCC(=O)NS(=O)(=O)c1ccc(NC(=O)Cc2ccc(Cl)c(Oc3cc(Cl)cc(C#N)c3)c2F)c(Cl)c1.[Na]
Reply: 155.4 to 157.5 °C

Task item: Tell me melting point reported for NS(=O)(=O)c1ccc(NC(=O)Cc2ccc(Cl)c(Oc3cc(Cl)ccc3Br)c2)cc1
Reply: 260.1 to 261.9 °C

Task item: Tell me melting point reported for Cc1ccc(CC(=O)Nc2ccc(S(C)(=O)=O)cc2Cl)c(F)c1Oc1cc(C#N)cc(C(F)F)c1
Reply: 179.9 to 182 °C

Task item: Tell me melting point reported for CCc1ccc(CC(=O)Nc2ccc(S(N)(=O)=O)cc2C)cc1Oc1cc(Cl)cc(C#N)c1
Reply: 189.1 to 189.4 °C

Task item: Tell me melting point reported for Cc1ccc(CC(=O)Nc2ccc(S(N)(=O)=O)cc2Cl)cc1Oc1cc(Cl)cc(C#N)c1
Reply: 194 to 194.9 °C

Task item: Tell me melting point reported for N#Cc1cc(Oc2c(Cl)ccc(CC(=O)Nc3ccc(S(N)(=O)=O)cc3)c2F)cc(C(F)F)c1
Reply: 214 to 218 °C

Task item: Tell me melting point reported for Cc1cc(S(=O)(=O)NC(=O)c2cccnc2)ccc1NC(=O)Cc1ccc(Cl)c(Oc2cc(Cl)cc(C#N)c2)c1F.Cl
Reply: 261.8 to 263.6 °C
